All values here come from patent US20230183193A1.

# herbicidal activity ALOMY per record follows
Tested on: Alopecurus myosuroides
Assay: Pre-emergence herbicidal action, ALOMY
Type: in vivo
Conditions: dosage 320 g/ha, scored visually after 3 weeks vs untreated controls
value-type: herbicidal activity ALOMY (%)

molecule: CCS(=O)(=O)c1c(C(F)F)ccc(C(=O)Nc2ncnn2C)c1Cl
val: 90

molecule: CCSc1c(C(F)F)ccc(C(=O)Nc2nnc(C)o2)c1Br
val: 100

molecule: CCc1c(C(=O)Nc2nnnn2C)ccc(C(F)F)c1[S+](C)[O-] (stereo not drawn)
val: 100

molecule: CCc1c(C(=O)Nc2nnc(C)o2)ccc(C(F)F)c1S(C)(=O)=O
val: 100

molecule: CCSc1c(C(F)F)ccc(C(=O)Nc2nnc(C)o2)c1C
val: 90

molecule: CCS(=O)(=O)c1c(C(F)F)ccc(C(=O)Nc2nonc2Cl)c1C
val: 90

molecule: CCn1nnnc1NC(=O)c1ccc(C(F)F)c(SC)c1C
val: 90

molecule: CCn1nnnc1NC(=O)c1ccc(C(F)F)c([S+](C)[O-])c1C (stereo not drawn)
val: 100

molecule: Cc1c(C(=O)Nc2nnnn2C)ccc(C(F)F)c1[S+](C)[O-] (stereo not drawn)
val: 100

----------
# herbicidal activity ALOMY per record follows
Tested on: Alopecurus myosuroides
Test: Pre-emergence herbicidal action, ALOMY
Assay type: in vivo
Conditions: dosage 320 g/ha, scored visually after 3 weeks vs untreated controls

structure-smiles-string: CCCn1nnnc1NC(=O)c1ccc(C(F)F)c(S(C)(=O)=O)c1C
herbicidal activity ALOMY: 90%

structure-smiles-string: CCn1nnnc1NC(=O)c1ccc(C(F)F)c(SC)c1Br
herbicidal activity ALOMY: 100%

structure-smiles-string: CCSc1c(C(F)F)ccc(C(=O)Nc2nnnn2CC)c1Br
herbicidal activity ALOMY: 100%

structure-smiles-string: CCc1c(C(=O)Nc2nnnn2C)ccc(C(F)F)c1S(=O)(=O)CC
herbicidal activity ALOMY: 100%

structure-smiles-string: CCS(=O)(=O)c1c(C(F)F)ccc(C(=O)Nc2nnnn2C)c1C1CC1
herbicidal activity ALOMY: 100%

----------
System: Stellaria media
Experiment: Pre-emergence herbicidal action, STEME
Format: in vivo
Conditions: dosage 320 g/ha, scored visually after 3 weeks vs untreated controls
Excerpt: 1. Pre-Emergence Herbicidal Action Against Harmful Plants Seeds of monocotyledonous and dicotyledonous weed plants and crop plants are laid out in sandy loam soil in wood-fiber pots and covered with soil. […] The damage to the test plants is scored visually after a test period of 3 weeks by comparison with untreated controls (herbicidal activity in percent (%): 100% activity=the plants have died, 0% activity=like control plants). […]
# Herbicidal activity STEME per record follows

compound: CCc1c(C(=O)Nc2nnnn2CC)ccc(C(F)F)c1S(=O)(=O)CC [Example 2-18]
unit-string: %
Herbicidal activity STEME: 100
//
compound: CCc1c(C(=O)Nc2nnnn2CC)ccc(C(F)F)c1[S+](C)[O-] (stereo not drawn) [Example 2-14]
unit-string: %
Herbicidal activity STEME: 100
//
compound: Cn1nnnc1NC(=O)c1ccc(C(F)F)c(S(C)(=O)=O)c1I [Example 1-75]
unit-string: %
Herbicidal activity STEME: 100

----------
System: Stellaria media
Assay: Post-emergence herbicidal action, STEME
Assay type: in vivo
Settings: 20 g/ha

molecule: Cc1c(C(=O)Nc2nnnn2C)ccc(C(F)F)c1[S+](C)[O-] (centres unmarked)
Herbicidal efficacy against STEME: 90

molecule: CSc1c(C(F)F)ccc(C(=O)Nc2ncnn2C)c1C
Herbicidal efficacy against STEME: 80

molecule: Cc1c(C(=O)Nc2ncnn2C)ccc(C(F)F)c1S(C)(=O)=O
Herbicidal efficacy against STEME: 60

molecule: CSc1c(C(F)F)ccc(C(=O)Nc2nnnn2C)c1C
Herbicidal efficacy against STEME: 100

molecule: Cn1nnnc1NC(=O)c1ccc(C(F)F)c(S(C)(=O)=O)c1Cl
Herbicidal efficacy against STEME: 100

----------
# herbicidal activity ALOMY per record follows
Tested on: Alopecurus myosuroides
Experiment: Pre-emergence herbicidal action, ALOMY
Format: in vivo
Conditions: dosage 320 g/ha, scored visually after 3 weeks vs untreated controls

molecule: CCc1c(C(=O)Nc2nnc(C)o2)ccc(C(F)F)c1[S+](C)[O-] (centres unmarked)
herbicidal activity ALOMY [%]: 100
//
molecule: CCCn1nnnc1NC(=O)c1ccc(C(F)F)c([S+](C)[O-])c1C (centres unmarked)
herbicidal activity ALOMY [%]: 90
//
molecule: CCn1nnnc1NC(=O)c1ccc(C(F)F)c(SC)c1Cl
herbicidal activity ALOMY [%]: 100
//
molecule: CCSc1c(C(F)F)ccc(C(=O)Nc2nnnn2C)c1CC
herbicidal activity ALOMY [%]: 100
//
molecule: CSc1c(C(F)F)ccc(C(=O)Nc2nnnn2C)c1C
herbicidal activity ALOMY [%]: 100
//
molecule: CCSc1c(C(F)F)ccc(C(=O)Nc2nnnn2C)c1Br
herbicidal activity ALOMY [%]: 100
//
molecule: CSc1c(C(F)F)ccc(C(=O)Nc2nnnn2C)c1C1CC1
herbicidal activity ALOMY [%]: 100
//
molecule: CCn1nnnc1NC(=O)c1ccc(C(F)F)c(S(C)(=O)=O)c1C
herbicidal activity ALOMY [%]: 90

----------
# Herbicidal activity STEME per record follows
Tested on: Stellaria media
Assay: Pre-emergence herbicidal action, STEME
Assay type: in vivo
Settings: dosage 320 g/ha, scored visually after 3 weeks vs untreated controls
Description: 1. Pre-Emergence Herbicidal Action Against Harmful Plants Seeds of monocotyledonous and dicotyledonous weed plants and crop plants are laid out in sandy loam soil in wood-fiber pots and covered with soil. […] The damage to the test plants is scored visually after a test period of 3 weeks by comparison with untreated controls (herbicidal activity in percent (%): 100% activity=the plants have died, 0% activity=like control plants). […]
value-type: Herbicidal activity STEME (%)

compound: CCSc1c(C(F)F)ccc(C(=O)Nc2nnnn2C)c1CC [Example 1-16]
unit-string: %
val: 100
--
compound: CSc1c(C(F)F)ccc(C(=O)Nc2ncnn2C)c1C1CC1 [Example 4-25]
unit-string: %
val: 90
--
compound: CSc1c(C(F)F)ccc(C(=O)Nc2nnnn2C)c1Cl [Example 1-49]
unit-string: %
val: 90
--
compound: CCSc1c(C(F)F)ccc(C(=O)Nc2ncnn2C)c1Cl [Example 4-52]
unit-string: %
val: 100
--
compound: CCS(=O)(=O)c1c(C(F)F)ccc(C(=O)Nc2nnnn2C)c1F [Example 1-42]
unit-string: %
val: 100
--
compound: CCn1nnnc1NC(=O)c1ccc(C(F)F)c(SC)c1C1CC1 [Example 2-25]
unit-string: %
val: 100
--
compound: Cn1nnnc1NC(=O)c1ccc(C(F)F)c(S(C)(=O)=O)c1Cl [Example 1-51]
unit-string: %
val: 100
--
compound: CCn1nnnc1NC(=O)c1ccc(C(F)F)c([S+](C)[O-])c1C1CC1 (stereo not shown) [Example 2-26]
unit-string: %
val: 100
--
compound: CCSc1c(C(F)F)ccc(C(=O)Nc2nnc(C)o2)c1Cl [Example 7-50]
unit-string: %
val: 100
--
compound: CCn1nnnc1NC(=O)c1ccc(C(F)F)c(S(C)(=O)=O)c1C [Example 2-3]
unit-string: %
val: 90

----------
# herbicidal activity AMARE per record follows
System: Amaranthus retroflexus
Test: Post-emergence herbicidal action, AMARE
Assay type: in vivo
Conditions: 80 g/ha, Table D

compound: CCS(=O)(=O)c1c(C(F)F)ccc(C(=O)Nc2nonc2Cl)c1C
tested-target: Amaranthus retroflexus
unit-string: %
herbicidal activity AMARE: 80
--
compound: CCc1c(C(=O)Nc2nnc(C)o2)ccc(C(F)F)c1[S+](C)[O-] (centres unmarked)
tested-target: Amaranthus retroflexus
unit-string: %
herbicidal activity AMARE: 100
--
compound: CCSc1c(C(F)F)ccc(C(=O)Nc2ncnn2C)c1Cl
tested-target: Amaranthus retroflexus
unit-string: %
herbicidal activity AMARE: 100
--
compound: CCS(=O)(=O)c1c(C(F)F)ccc(C(=O)Nc2nnnn2C)c1I
tested-target: Amaranthus retroflexus
unit-string: %
herbicidal activity AMARE: 100
--
compound: CCSc1c(C(F)F)ccc(C(=O)Nc2nnnn2C)c1C1CC1
tested-target: Amaranthus retroflexus
unit-string: %
herbicidal activity AMARE: 100
--
compound: CCSc1c(C(F)F)ccc(C(=O)Nc2nnc(C)o2)c1Cl
tested-target: Amaranthus retroflexus
unit-string: %
herbicidal activity AMARE: 90
--
compound: CCSc1c(C(F)F)ccc(C(=O)Nc2nnnn2CC)c1F
tested-target: Amaranthus retroflexus
unit-string: %
herbicidal activity AMARE: 100
--
compound: CCn1nnnc1NC(=O)c1ccc(C(F)F)c([S+](C)[O-])c1Cl (centres unmarked)
tested-target: Amaranthus retroflexus
unit-string: %
herbicidal activity AMARE: 100
--
compound: Cn1nnnc1NC(=O)c1ccc(C(F)F)c([S+](C)[O-])c1C1CC1 (centres unmarked)
tested-target: Amaranthus retroflexus
unit-string: %
herbicidal activity AMARE: 100
--
compound: CCS(=O)(=O)c1c(C(F)F)ccc(C(=O)Nc2ncnn2C)c1Cl
tested-target: Amaranthus retroflexus
unit-string: %
herbicidal activity AMARE: 90
--
compound: CCS(=O)(=O)c1c(C(F)F)ccc(C(=O)Nc2nnnn2C)c1C
tested-target: Amaranthus retroflexus
unit-string: %
herbicidal activity AMARE: 100
--
compound: CCn1nnnc1NC(=O)c1ccc(C(F)F)c(S(=O)(=O)CC)c1I
tested-target: Amaranthus retroflexus
unit-string: %
herbicidal activity AMARE: 100
--
compound: CC[S+]([O-])c1c(C(F)F)ccc(C(=O)Nc2ncnn2C)c1C1CC1 (centres unmarked)
tested-target: Amaranthus retroflexus
unit-string: %
herbicidal activity AMARE: 80
--
compound: CCn1nnnc1NC(=O)c1ccc(C(F)F)c(SC)c1F
tested-target: Amaranthus retroflexus
unit-string: %
herbicidal activity AMARE: 100
--
compound: CCCn1nnnc1NC(=O)c1ccc(C(F)F)c(SC)c1C
tested-target: Amaranthus retroflexus
unit-string: %
herbicidal activity AMARE: 100
--
compound: Cn1ncnc1NC(=O)c1ccc(C(F)F)c([S+](C)[O-])c1F (centres unmarked)
tested-target: Amaranthus retroflexus
unit-string: %
herbicidal activity AMARE: 90
--
compound: CCSc1c(C(F)F)ccc(C(=O)Nc2nnnn2C)c1Br
tested-target: Amaranthus retroflexus
unit-string: %
herbicidal activity AMARE: 100
--
compound: CSc1c(C(F)F)ccc(C(=O)Nc2nnnn2C)c1C
tested-target: Amaranthus retroflexus
unit-string: %
herbicidal activity AMARE: 100
--
compound: Cn1nnnc1NC(=O)c1ccc(C(F)F)c([S+](C)[O-])c1Cl (centres unmarked)
tested-target: Amaranthus retroflexus
unit-string: %
herbicidal activity AMARE: 100
--
compound: Cn1nnnc1NC(=O)c1ccc(C(F)F)c(S(C)(=O)=O)c1I
tested-target: Amaranthus retroflexus
unit-string: %
herbicidal activity AMARE: 90
--
compound: CC[S+]([O-])c1c(C(F)F)ccc(C(=O)Nc2ncnn2C)c1F (centres unmarked)
tested-target: Amaranthus retroflexus
unit-string: %
herbicidal activity AMARE: 90
--
compound: Cc1nnc(NC(=O)c2ccc(C(F)F)c(S(C)(=O)=O)c2C)o1
tested-target: Amaranthus retroflexus
unit-string: %
herbicidal activity AMARE: 90
--
compound: CCSc1c(C(F)F)ccc(C(=O)Nc2ncnn2C)c1C
tested-target: Amaranthus retroflexus
unit-string: %
herbicidal activity AMARE: 100
--
compound: CCSc1c(C(F)F)ccc(C(=O)Nc2nnc(C)o2)c1CC
tested-target: Amaranthus retroflexus
unit-string: %
herbicidal activity AMARE: 100
--
compound: CCS(=O)(=O)c1c(C(F)F)ccc(C(=O)Nc2nnnn2C)c1F
tested-target: Amaranthus retroflexus
unit-string: %
herbicidal activity AMARE: 100
--
compound: CCSc1c(C(F)F)ccc(C(=O)Nc2nnnn2C)c1Cl
tested-target: Amaranthus retroflexus
unit-string: %
herbicidal activity AMARE: 100
--
compound: CCSc1c(C(F)F)ccc(C(=O)Nc2ncnn2C)c1C1CC1
tested-target: Amaranthus retroflexus
unit-string: %
herbicidal activity AMARE: 80
--
compound: CCSc1c(C(F)F)ccc(C(=O)Nc2nnnn2CC)c1C1CC1
tested-target: Amaranthus retroflexus
unit-string: %
herbicidal activity AMARE: 100
--
compound: CSc1c(C(F)F)ccc(C(=O)Nc2nnnn2C)c1C1CC1
tested-target: Amaranthus retroflexus
unit-string: %
herbicidal activity AMARE: 100
